tgt: FGFR3 (UniProt P22607)
Sequence (P22607 whole entry, looked up): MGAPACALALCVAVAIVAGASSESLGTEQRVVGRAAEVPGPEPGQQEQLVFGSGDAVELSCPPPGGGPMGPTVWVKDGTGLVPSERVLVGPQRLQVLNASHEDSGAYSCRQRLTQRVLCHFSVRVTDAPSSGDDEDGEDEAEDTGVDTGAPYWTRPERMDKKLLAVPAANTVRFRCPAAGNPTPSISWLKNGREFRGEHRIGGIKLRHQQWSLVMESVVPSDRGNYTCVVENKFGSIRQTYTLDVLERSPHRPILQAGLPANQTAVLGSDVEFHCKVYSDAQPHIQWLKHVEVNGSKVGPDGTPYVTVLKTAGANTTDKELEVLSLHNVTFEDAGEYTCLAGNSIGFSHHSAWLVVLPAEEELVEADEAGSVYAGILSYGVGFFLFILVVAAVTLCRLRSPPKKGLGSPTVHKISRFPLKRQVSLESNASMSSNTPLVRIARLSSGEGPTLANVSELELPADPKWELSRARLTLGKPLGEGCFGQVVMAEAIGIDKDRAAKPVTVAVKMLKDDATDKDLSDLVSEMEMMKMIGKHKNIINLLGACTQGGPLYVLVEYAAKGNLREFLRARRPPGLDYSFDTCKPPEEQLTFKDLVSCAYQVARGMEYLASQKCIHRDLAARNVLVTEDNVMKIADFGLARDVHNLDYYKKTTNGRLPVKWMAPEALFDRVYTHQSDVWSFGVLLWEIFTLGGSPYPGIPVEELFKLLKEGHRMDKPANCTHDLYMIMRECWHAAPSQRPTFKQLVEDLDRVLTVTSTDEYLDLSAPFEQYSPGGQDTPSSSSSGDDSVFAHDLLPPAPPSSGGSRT
assay.summary: phosphorylation enrichment, bacterial display (enrichment ratio); higher = better substrate or ligand; peptides without Tyr show the background
Classification field: enter YES for phosphorylation enrichment values not below 0.6, NO for values below it.

STGWSYAGVAV [KLHL3_Y577_R575W]	NO
FLAVGYHKLHI [IDS_Y225_P228L]	YES
NDHHVYLEGTL [ALDOB_Y223]	NO
TNQVIYLNPPI [DYNC1H1_Y970]	YES
FSMGCYEFSLG [HMGCL_Y198_I200F_YF]	YES

Next, consider the following sequence.
Quick check, phosphorylation enrichment >= 0.6? QRPFVYFFSFL [PTEN_Y176_R173P_YF]
YES

* * *

tgt: Grb2 SH2 (UniProt P62993)
Sequence (P62993 whole entry, looked up): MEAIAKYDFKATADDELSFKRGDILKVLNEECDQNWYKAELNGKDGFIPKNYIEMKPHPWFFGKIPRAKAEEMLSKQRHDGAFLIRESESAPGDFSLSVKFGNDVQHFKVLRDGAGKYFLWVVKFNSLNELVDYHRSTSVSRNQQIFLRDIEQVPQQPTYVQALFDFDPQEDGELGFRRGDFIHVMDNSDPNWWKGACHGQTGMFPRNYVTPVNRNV
assay.summary: SH2 binding enrichment of the phosphorylated peptide, bacterial display (enrichment ratio); higher = better substrate or ligand; peptides without Tyr show the background
Field: SH2 binding enrichment. Provide a value for each of the sequences that follow.
Answers are plain numbers.

Look over these answered cases.
TKDTFYQQPMF [GBA_Y451_K452Q]	0.793
KNNDGNIDYAE [MCFD2_Y135_Y135N]	1.05
SVVVPYEPSEV [TP53_Y220_P223S]	0.837
HKLSSYEFDFE [BTK_Y40_Y39S_YF]	0.974
ADFPDCKFRPR [SOX11_Y116_Y116C_YF]	1.05
VPVPGYTKVPE [SPRR3_Y146_L149V]	0.81
PVFQVYPLLNC [GATA1_Y78]	0.742
SVVVPYEPPEV [TP53_Y220]	1.01

Need SH2 binding enrichment for each of these sequences.
1. SSQTIYQRVEG [TFR2_Y23_V22I]
2. INNIDYYKKTT [FGFR2_Y656]
3. LKGQVYILGWE [ASS1_Y359_R363W]
4. SSVAGYACLAF [MVD_Y131_A128V_YF]
5. IIWDSYTTNKV [GNB1_Y85]
6. EFISEYCGEII [EZH2_Y641]
7. ATHSGYRLNDF [CLDN14_Y233_YF]
8. RSGIFYKPESL [L2HGDH_Y103_H98R_YF]

1. 0.812
2. 0.743
3. 1.01
4. 0.834
5. 0.76
6. 0.947
7. 1.04
8. 0.913

Need SH2 binding enrichment for each of these sequences.
1. EAEPFYCSLRD [NPHS1_Y1139_R1140C_YF]
2. KENITYMKREQ [L1TD1_Y24]
3. DFFDLYGGKKF [PTPN11_Y66_E69K_YF]
4. GDRPVYSEDEQ [CHST6_Y362_Y358D]
5. AKKKMYSCKTK [AGXT_Y231_R233C]
6. RFLERYIYNRE [HLA-DPB1_Y57]
7. RGEEPYTKKAL [TTC21B_Y160_K157E]
8. PANTVYSTVEI [SLAMF7_Y304]

1. 0.941
2. 0.809
3. 0.967
4. 0.992
5. 1.44
6. 1.3
7. 0.542
8. 0.925

Need SH2 binding enrichment for each of these sequences.
1. RDGDRYFKGIV [DCX_Y64_N60D]
2. LAIERYVVVCK [RHO_Y136]
3. SARFHYLMAEK [LDHB_Y173_R172H]

1: 1.16; 2: 0.674; 3: 0.957

Need SH2 binding enrichment for each of these sequences.
1. PIPAAYNRYDQ [CDC73_Y290]
2. QGIYGYHHHMQ [UFSP2_Y287_Y290H]

1: 0.75; 2: 1.09
